Values compiled from paper PMC9575003.

# system_name: hDAT (dopamine transporter) (Homo sapiens, UniProt Q01959)
# Sequence (Q01959 whole entry): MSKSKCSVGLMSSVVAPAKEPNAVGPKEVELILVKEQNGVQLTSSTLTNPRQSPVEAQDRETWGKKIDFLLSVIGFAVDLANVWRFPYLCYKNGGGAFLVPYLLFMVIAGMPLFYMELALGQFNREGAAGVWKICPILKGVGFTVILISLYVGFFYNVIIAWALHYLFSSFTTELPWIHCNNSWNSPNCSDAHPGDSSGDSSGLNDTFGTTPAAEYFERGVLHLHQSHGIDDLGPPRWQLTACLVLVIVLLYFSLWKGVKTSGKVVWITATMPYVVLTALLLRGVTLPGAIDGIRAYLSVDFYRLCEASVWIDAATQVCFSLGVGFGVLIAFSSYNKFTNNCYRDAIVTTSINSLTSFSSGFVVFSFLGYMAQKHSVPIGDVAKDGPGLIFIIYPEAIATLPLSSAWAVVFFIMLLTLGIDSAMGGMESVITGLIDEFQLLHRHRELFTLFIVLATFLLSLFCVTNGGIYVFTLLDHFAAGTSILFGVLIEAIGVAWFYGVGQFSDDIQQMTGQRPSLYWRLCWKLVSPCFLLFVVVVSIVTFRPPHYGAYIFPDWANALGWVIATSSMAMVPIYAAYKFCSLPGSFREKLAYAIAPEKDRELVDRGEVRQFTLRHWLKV
value_kind: Ki (µM)
Kindly provide the numeric value in µM only, without the unit symbol.

The molecule C[C@@H](CN1CCC(Cc2ccccc2)CC1)C(O)c1ccc(O)cc1 (stereo partly shown) showed Ki equal to 3.46

----------
value_kind: Ki (µM)
Provide only the numeric value, understood in µM.

Tested system hNET (norepinephrine transporter) (Homo sapiens, UniProt P23975); Ki recorded for C[C@@H](CN1CCC(Cc2ccccc2)CC1)C(O)c1ccc(O)cc1 (stereo partly shown) [MI-4, Ro-25-6981] was 0.365

----------
# system_name: hSERT (serotonin transporter) (Homo sapiens, UniProt P31645)
# Sequence (P31645 whole entry): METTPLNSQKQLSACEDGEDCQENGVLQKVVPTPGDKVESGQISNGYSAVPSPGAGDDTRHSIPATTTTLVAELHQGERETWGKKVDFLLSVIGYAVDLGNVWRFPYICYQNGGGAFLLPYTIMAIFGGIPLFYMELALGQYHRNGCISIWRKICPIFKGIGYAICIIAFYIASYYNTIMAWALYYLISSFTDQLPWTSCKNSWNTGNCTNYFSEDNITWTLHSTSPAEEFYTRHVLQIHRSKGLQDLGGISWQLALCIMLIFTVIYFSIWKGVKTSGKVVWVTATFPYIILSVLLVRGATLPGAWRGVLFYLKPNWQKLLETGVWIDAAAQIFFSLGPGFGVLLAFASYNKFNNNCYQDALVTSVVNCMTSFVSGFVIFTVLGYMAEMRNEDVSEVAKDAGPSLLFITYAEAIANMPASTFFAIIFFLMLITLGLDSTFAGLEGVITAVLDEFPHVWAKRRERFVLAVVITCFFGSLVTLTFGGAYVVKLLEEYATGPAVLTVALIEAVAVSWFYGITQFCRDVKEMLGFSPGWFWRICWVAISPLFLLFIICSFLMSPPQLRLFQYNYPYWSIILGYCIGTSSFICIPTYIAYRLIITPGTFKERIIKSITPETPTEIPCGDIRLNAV
value_kind: pKi
Entry type: numeric. Quantity: pKi, the -log10 of concentration in molar units.

pKi recorded for this compound, C[C@@H](CN1CCC(Cc2ccccc2)CC1)C(O)c1ccc(O)cc1 (stereo partly shown) [MI-4, Ro-25-6981] , is 6.17
